# System: PC26
# Assay Explanation: qHTS profiling for inhibitors of Plasmodium falciparum proliferation (AID 504749); further: nearly all actives have a fitted effect of over 60% in size
# Reported Conditions: P. falciparum in erythrocytes, SYBR Green DNA, 72 h; series mostly up to 12.8 µM
Records with an inconclusive call do not appear. Calls of active or inactive are those of the source. The call rests on the fitted dose curve; in most records, active means well fitted inhibition curve with a large enough effect; inconclusive means small, poorly fitted or top-dose-only effect; inactive means flat fitted curve, though single readings scatter.
Respond using exactly one of the listed classes: True (active), False (inactive)

For CC(C)NC[C@H](O)c1cc(O)cc(O)c1 , what call appears in the results of this test?
False

For CCn1cc(C(=O)O)c(=O)c2cc(F)c(N3CCN[C@@H](C)C3)c(F)c21 , what call appears in the results of this test?
False

For C[N+](C)(C)CC(O)CC(=O)O (stereo not drawn) , what call appears in the results of this test?
False

For CCN(CC)CCC[C@H](C)Nc1ccnc2cc(Cl)ccc12 , what call appears in the results of this test?
True

For O=C(O)/C=C\c1ccc(Cn2ccnc2)cc1 , what call appears in the results of this test?
False

For CC1(C)S[C@@H]2[C@H](NC(=O)[C@H](C(=O)O)c3ccsc3)C(=O)N2[C@H]1C(=O)O , what call appears in the results of this test?
False

For CO/N=C(/C(=O)NC1C(=O)N2C(C(=O)O)=C(CSc3nc(=O)c(O)nn3C)CSC12)c1csc(N)n1 (stereo not drawn) , what call appears in the results of this test?
False

For COc1cc(/C=C/C(=O)/C=C(O)/C=C/c2ccc(O)c(OC)c2)ccc1O , what call appears in the results of this test?
True

For C[C@@H](C(=O)O)c1ccc(C(=O)c2cccs2)cc1 , what call appears in the results of this test?
False

For CCN(CC)CCC[C@H](C)Nc1c2ccc(Cl)cc2nc2ccc(OC)cc12 , what call appears in the results of this test?
True

For CC[C@]1(C)CC(=O)NC1=O , what call appears in the results of this test?
False

For CC1(C)Oc2ccc(C#N)cc2[C@H](N2CCCC2=O)[C@H]1O , what call appears in the results of this test?
False

For Cc1cc(/C=C\c2ccc3cc(N(C)C)ccc3[n+]2C)c(C)n1-c1ccccc1 , what call appears in the results of this test?
True

For COCCc1ccc(OC[C@H](O)CNC(C)C)cc1 , what call appears in the results of this test?
False

For COc1ccccc1OC[C@H](O)COC(N)=O , what call appears in the results of this test?
False

For CCN1C(=O)N[C@@H](c2ccccc2)C1=O , what call appears in the results of this test?
False

For CN1CCCC[C@@H]1CCN1c2ccccc2Sc2ccc(S(C)=O)cc21 (stereo partly drawn) , what call appears in the results of this test?
False

For CO/N=C(\C(=O)N[C@@H]1C(=O)N2C(C(=O)O)=C(COC(C)=O)CS[C@@H]12)c1csc(N)n1 , what call appears in the results of this test?
False
